Biological target: purified human von Willebrand factor (vWF) (human, UniProt P04275 764-2813)
Experiment: cell-based or functional assay
measured.metric: Platelet agglutination EC50 mean value (from 2 independent expts.) (nM)
Form entry: value (nM) — number only.

Qu. Requested field: Platelet agglutination EC50 mean value (from 2 independent expts.). Item: humanized NMC-4 variant H9, L9 (CDR-grafted), IgG1 (antibody, V domains shown) VH: QVQLQESGPGLVKPSETLSLTCTVSGFSLTDYGVDWIRQPPGKGLEWIGMIWGDGSTDYNSALKSRVTISVDTSKNQFSLKLSSVTAADTAVYYCARDPADYGNYDYALDYWGQGTLVTVSS VL: DIQMTQSPSSLSASVGDRVTITCSASQDINKYLNWYQQKPGKAPKLLIYYTSSLHSGVPSRFSGSGSGTDFTLTISSLQPEDFATYYCQQYEKLPWTFGQGTKVEIK
Ans. 1.3
